Measured values drawn from ChEMBL document CHEMBL1153716 for this set.

target: UniProt:P48147; test: Inhibition of prolyl oligopeptidase in intact human fibroblasts assessed as blockade of Z-Gly-Pro-AMC substrate hydrolysis at 100 uM by fluorimetric assay
Sequence (P48147 whole entry): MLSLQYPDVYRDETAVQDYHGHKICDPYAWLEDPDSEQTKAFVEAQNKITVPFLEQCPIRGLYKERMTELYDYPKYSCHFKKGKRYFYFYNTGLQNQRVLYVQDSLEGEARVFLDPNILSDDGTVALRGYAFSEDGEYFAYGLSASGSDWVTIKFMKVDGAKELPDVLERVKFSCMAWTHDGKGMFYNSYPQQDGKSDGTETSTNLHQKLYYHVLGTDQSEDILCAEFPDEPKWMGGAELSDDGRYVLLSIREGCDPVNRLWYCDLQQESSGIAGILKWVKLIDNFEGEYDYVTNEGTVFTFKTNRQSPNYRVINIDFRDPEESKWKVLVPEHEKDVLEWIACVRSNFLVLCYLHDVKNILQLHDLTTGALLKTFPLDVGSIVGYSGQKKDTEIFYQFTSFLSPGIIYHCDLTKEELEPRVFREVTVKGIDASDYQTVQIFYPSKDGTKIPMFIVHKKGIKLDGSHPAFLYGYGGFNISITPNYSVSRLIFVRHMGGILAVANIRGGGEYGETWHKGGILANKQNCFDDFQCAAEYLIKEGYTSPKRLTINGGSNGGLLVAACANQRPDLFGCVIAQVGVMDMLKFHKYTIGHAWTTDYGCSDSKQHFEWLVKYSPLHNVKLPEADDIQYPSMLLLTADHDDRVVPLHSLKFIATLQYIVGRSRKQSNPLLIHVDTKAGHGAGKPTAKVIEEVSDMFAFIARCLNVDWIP
Active and inactive are the calls of the source. The rule behind the calls is not given here.
EXPERIMENTAL_READOUT: inhibition

Prompt: Checklist item: inhibition tested on UniProt:P48147, entry N#C[C@@H]1CS[C@H]2C[C@H](NC(=O)OCc3ccccc3)C(=O)N12 , value?
Completion: 10%

Prompt: inhibition of N#C[C@@H]1CO[C@H]2C[C@H](NC(=O)OCc3ccccc3)C(=O)N12 on UniProt:P48147?
Completion: 10%

Prompt: Request body: readout inhibition, system UniProt:P48147, query NC(=O)[C@@H]1CS[C@H]2C[C@H](NC(=O)OCc3ccccc3)C(=O)N21 . Return the value.
Completion: inactive

Prompt: Param readout= inhibition; system= UniProt:P48147; entry= N#C[C@@H]1CCCN1C(=O)OCc1ccccc1 ; returns value.
Completion: 10%

Turning now to a further molecule:
Prompt: Query for UniProt:P48147: what inhibition does the record show for C[C@H]1O[C@H]2C[C@H](NC(=O)OCc3ccccc3)C(=O)N2[C@@H]1C#N ?
Completion: inactive
